tested on: Staphylococcus aureus; test: Inhibition of EtBr efflux in ciprofloxacin-resistant Staphylococcus aureus 1199B overexpressing norA and harboring A116E grlA mutant assessed as reduction in fluorescence intensity at 10 uM measured for 5 mins by microplate reader analysis relative to control; type: functional
Outcome label depends on inhibition relative to 80%: at/above gives 1, below gives -1.

Is the recorded value of inhibition equal to or greater than 80% for this compound? `CCCOc1ccc(-c2cc(OCCN3CCCCC3)c3cc(Nc4ccccc4)ccc3n2)cc1`
-1

Record `CCCOc1ccc(-c2cc(OCCN(CC)CC)c3cc(Oc4ccccc4)ccc3n2)cc1` ; criterion: inhibition no lower than 80%. Met?
-1

Given `CCCOc1ccc(-c2cc(OCCN3CCCCCC3)c3cc(C(F)(F)F)ccc3n2)cc1` , state whether its inhibition is at least 80%.
-1

Has `CCCOc1ccc(-c2cc(OCCN3CCCCC3)c3cc(C(F)(F)F)ccc3n2)cc1` a recorded inhibition greater than or equal to 80%?
-1

Determine whether measured inhibition meets or exceeds 80% for `CCCOc1ccc(-c2cc(OCCN3CCCCCC3)c3cc(C#N)ccc3n2)cc1`
1

Check if inhibition >= 80% (inclusive). Item: `CCCOc1ccc(-c2cc(OCCN3CCCCC3)c3cc(OC(F)(F)F)ccc3n2)cc1`
1

Please tell me: is the compound `CCCOc1ccc(-c2cc(OCCN3CCCCC3)c3cc(Oc4ccccc4)ccc3n2)cc1` at or over 80% in terms of inhibition?
-1

* * *

test system: Staphylococcus aureus; experiment: Inhibition of EtBr efflux in ciprofloxacin-resistant Staphylococcus aureus 1199B overexpressing norA and harboring A116E grlA mutant assessed as reduction in fluorescence intensity at 50 uM measured for 5 mins by microplate reader analysis relative to control; type: functional
Could you please report measured inhibition for the items listed next?
I only need the number, in %, no unit after it.

Lab book: inhibition of `CCCOc1ccc(-c2cc(OCCN3CCCCC3)c3cc(OC(C)C)ccc3n2)cc1` noted as 65.3

Query `CCCOc1ccc(-c2cc(OCCN(CC)CC)c3cc(C#N)ccc3n2)cc1` yields inhibition of 77.8

The compound listed as `CCCOc1ccc(-c2cc(OCCN3CCCCCC3)c3cc(SC)ccc3n2)cc1` shows inhibition equal to 81.2

inhibition measured on `CCCOc1ccc(-c2cc(OCCN(CC)CC)c3cc(OC(C)C)ccc3n2)cc1` = 43.7

Value of measured inhibition for the entry `CCCOc1ccc(-c2cc(OCCN3CCCCC3)c3cc(Br)ccc3n2)cc1` : 71.6

* * *

So I've got a bunch of molecules here, and I need their inhibition values.
system: Staphylococcus aureus; assay: Inhibition of EtBr efflux in ciprofloxacin-resistant Staphylococcus aureus 1199B overexpressing norA and harboring A116E grlA mutant assessed as reduction in fluorescence intensity at 50 uM measured for 5 mins by microplate reader analysis relative to control; assay type: functional
Write the value in % as a bare number.

Note to self: inhibition recorded for `CCCOc1ccc(-c2cc(OCCN(CC)CC)c3cc(SC)ccc3n2)cc1` was 53.3

Reported inhibition of `CCCOc1ccc(-c2cc(OCCN3CCCCCC3)c3cc(OCCC)ccc3n2)cc1` : 82.3

The molecule `CCCOc1ccc(-c2cc(OCCN3CCCCC3)c3cc(-c4ccccc4)ccc3n2)cc1` showed inhibition equal to 80.6

response.value for `CCCOc1ccc(-c2cc(OCCN3CCCCCC3)c3cc(Oc4ccccc4)ccc3n2)cc1` (field: inhibition) = 83

The recorded inhibition for `CCCOc1ccc(-c2cc(OCCN3CCCCC3)c3cc(NCc4ccccc4)ccc3n2)cc1` is 40.6

Kindly note the recorded inhibition for `CCCOc1ccc(-c2cc(OCCN3CCCCCC3)c3cc(OC(F)F)ccc3n2)cc1` , which is 70.7

Recorded inhibition (molecule `CCCOc1ccc(-c2cc(OCCN3CCCCCC3)c3cc(C(F)(F)F)ccc3n2)cc1` ): 85.7

For reference, reported inhibition for `CCCOc1ccc(-c2cc(OCCN3CCCCCC3)c3cc(Br)ccc3n2)cc1` stands at 76.4

Entry `CCCOc1ccc(-c2cc(OCCN3CCCCCC3)c3cc(C#N)ccc3n2)cc1` — recorded inhibition = 84.2

Please fill in: inhibition reported for `CCCOc1ccc(-c2cc(OCCN3CCCCC3)c3cc(Oc4ccccc4)ccc3n2)cc1` = 84.1

Lab book: inhibition of `CCCOc1ccc(-c2cc(OCCN(CC)CC)c3cc(Oc4ccccc4)ccc3n2)cc1` noted as 80.9

For `CCCOc1ccc(-c2cc(OCCN3CCCCC3)c3cc(OC(F)F)ccc3n2)cc1` the molecule record lists inhibition as 80.2

Reported inhibition for `CCCOc1ccc(-c2cc(OCCN3CCCCC3)c3cc(C(F)(F)F)ccc3n2)cc1` was 87.4

inhibition in this record for `CCCOc1ccc(-c2cc(OCCN3CCCCC3)c3cc(OC(F)(F)F)ccc3n2)cc1` : 81.2

Entry `CCCOc1ccc(-c2cc(OCCN3CCCCC3)c3cc(C#N)ccc3n2)cc1` — recorded inhibition = 77.8

The recorded inhibition for entry `CCCOc1ccc(-c2cc(OCCN(CC)CC)c3cc(OC(F)(F)F)ccc3n2)cc1` equals 83

Measured inhibition, `CCCOc1ccc(-c2cc(OCCN(CC)CC)c3cc(OC(F)F)ccc3n2)cc1` : 71.9
